Every entry's value here was drawn from PubChem BioAssay (Tox21).

biological target: Cytochrome P450 2C9 (Homo sapiens); assay: Cytochrome P450 Family 2 Subfamily C Member 9 (CYP2C9) small molecule antagonists: luciferase reporter qHTS assay (AID 1671198); details: P450-Glo CYP2C9 enzyme assay, luciferin luminescence; series mostly up to 115 µM; note: nearly all actives have a fitted effect of over 50% in size
Results filed as inconclusive are left out. Calls of active or inactive are those of the source. Calls come from the whole dose curve; as a rule, active = well fitted inhibition curve with a large enough effect in the repeat runs; inconclusive = weak or mixed curves; inactive = no such curve, though single readings can be large or run the other way.
Parameter: outcome

Solved entries:
CCC[N+](=O)[O-] : inactive
CCNc1nc(NC(C)C)nc(SC)n1 : inactive
CCNc1nc(NC(C)(C)C)nc(SC)n1 : inactive
CC(C)(C)OOC(C)(C)C : inactive
CC(=O)C=C(C)C : inactive

Query: Tell me measured outcome for `C[C@]12CC[C@H]3[C@@H](CC[C@@]45O[C@@H]4C(O)=C(C#N)C[C@]35C)[C@@H]1CC[C@@H]2O` please.
Result: inactive

Query: Tell me its outcome given NCC(O)c1ccc(O)cc1 (configuration not stated) as the entry.
Result: inactive

* * *

assay: qHTS assay to identify small molecule antagonists of the estrogen related receptor signaling pathway with the pleiotropic PPARgamma coactivator (PGC) from Tox21 10K library - cell viability counter screen (AID 1224840); conditions: PGC/ERR reporter cells viability, CellTiter-Fluor, 17.5 h; series mostly up to 92.4 µM; note: nearly all actives have a fitted effect of over 40% in size
Records with an inconclusive call do not appear. Calls of active or inactive are those of the source. The call rests on the fitted dose curve; in most records, active means well fitted cell-killing curve with a large enough effect in the repeat runs (not every such curve was filed as active); inconclusive means weak or mixed curves, or effect the other way; inactive means no such curve, though single readings can be large or run the other way.
Parameter: outcome

[O-][Cl+2]([O-])O : inactive
CC(C)C#N : inactive
CCNc1nc(NC(C)C)nc(SC)n1 : inactive
CCC[CH2][Sn]([Cl])([Cl])[Cl] : inactive
Oc1ccccc1Cl : inactive
BrCCBr : inactive
CCCCOC(=O)c1ccccc1C(=O)OCCCC : inactive
Nc1c(Cl)c(Cl)nc(C(=O)O)c1Cl : inactive

Query: Look up and report measured outcome for this entry: `C=C(C)CCl`
Result: inactive

Query: Identify the reported outcome for the following entry. `Clc1ccccc1Cl`
Result: inactive

Query: Identify outcome associated with the compound `c1ccc(OP(Oc2ccccc2)Oc2ccccc2)cc1`
Result: inactive

Query: Answer with the recorded outcome of `CCC12COCN1COC2` only.
Result: inactive

Query: In one line, give reported outcome of the entry `CC(C)(C)OOC(C)(C)C` .
Result: inactive

Query: Identify the reported outcome for the following entry. `CN(C)[C@@H]1C(=O)C(C(N)=O)=C(O)[C@@]2(O)C(=O)C3=C(O)c4c(O)cccc4[C@@](C)(O)[C@H]3C[C@@H]12`
Result: inactive

Query: Indicate its recorded outcome; the compound in question is `Clc1cccc(Cl)c1Cl`
Result: inactive

* * *

test: qHTS assay to identify small molecule agonists of H2AX - cell viability counter screen (AID 1224847); settings: CHO-K1 viability, CellTiter-Glo luminescence, 3 h; series mostly up to 154 µM; note: nearly all actives have a fitted effect of over 30% in size
Results filed as inconclusive are left out. The source made the active and inactive calls. The call rests on the fitted dose curve.
A correct response names exactly one class from 1 (active), 0 (inactive)

Query: Which result was noted for this compound in the test: `CCC[CH2][Sn]([Cl])([Cl])[Cl]`
Result: 0

Query: recorded result category for `CCOP(OCC)OCC` in this test
Result: 0

Query: Please indicate how the test categorized CC(C)C1(C)N=C(c2nc3ccccc3cc2C(=O)O)NC1=O (stereo not given) .
Result: 0

Query: Assay result, entry `CN1C(=O)CN=C(c2ccccc2)c2cc(Cl)ccc21` — outcome?
Result: 0

Query: Record lookup: outcome of this test for `CCCCCCCCCCCC#N` ?
Result: 0

Query: For `NCCc1ccc(O)cc1` , which call appears in the assay record?
Result: 0

Query: Entry `O=NN1CCCCCCC1` : call = ?
Result: 0

Query: Recorded test call requested for `CC(C)=C[C@@H]1[C@@H](C(=O)OCc2coc(Cc3ccccc3)c2)C1(C)C`
Result: 0

Query: # outcome recorded in this test, key = CC(Oc1ccc(Cl)cc1Cl)C(=O)O (stereo not given)
Result: 0

Query: What call does the record list for `Clc1cccc(Cl)c1Cl` ?
Result: 0

Query: Status in this test for `ClCCBr` ?
Result: 0

Query: GET /call?item= `Nc1ccc(Oc2ccc(N)cc2)cc1` returns the recorded outcome of this test.
Result: 0

Query: Status in this test for `O=Cc1cccc(Oc2ccccc2)c1` ?
Result: 0

Query: How was `CCC(C)(CC)c1cc(NC(=O)c2c(OC)cccc2OC)on1` classified in this test?
Result: 0

Query: Test call for this compound, please: `C=CC(N)=O`
Result: 0

Query: Field: outcome | Entry: `CCOP(=S)(OCC)Oc1cnc2ccccc2n1`
Result: 0

Query: Can you look up the reported call for `C1CN2CCN1CC2` for me?
Result: 0

Query: Assay result, entry `C=CCO` — outcome?
Result: 0

Query: Name the outcome recorded for `BrCCBr` in the assay.
Result: 0

Query: How did this test come out for `CCCN(CCC)c1c([N+](=O)[O-])cc(C(F)(F)F)cc1[N+](=O)[O-]` ?
Result: 0

Query: Hey, what did the test say about `CCN(CC)c1ccccc1` ?
Result: 0

Query: Hi team, can someone confirm the assay call for `CCC[N+](=O)[O-]` ?
Result: 0

Query: # fetch the recorded call for `CCNc1nc(NC(C)(C)C)nc(SC)n1` here
Result: 0

Query: Which result was noted for this compound in the test: `CNC(=O)Oc1ccccc1OC(C)C`
Result: 0

Query: So what was the verdict on `O=C(O)c1ccccn1` in this test?
Result: 0

Query: For `CC1C=[C-]C=C1.[C-]#[O+].[C-]#[O+].[C-]#[O+].[Mn]` , what call appears in the results of this test?
Result: 0

Query: Hello, I am checking results. What call was entered for `[O-][Cl+2]([O-])O` ?
Result: 0

Query: Identify the outcome logged in this assay for the compound shown: `CC(C)(C)OOC(C)(C)C`
Result: 0

Query: Please let me know the test result on file for `ClCc1cccnc1` .
Result: 0

Query: Hi, sorry to bother you, what did the test record for CC1OC(C)OC(C)O1 (stereo not given) ?
Result: 0

Query: Kindly provide the recorded test outcome for the following compound: `O=S(=O)(c1ccc(Cl)cc1)c1cc(Cl)c(Cl)cc1Cl`
Result: 1

Query: Hello, I am checking results. What call was entered for `O=c1[nH]c(=O)[nH]c(=O)[nH]1` ?
Result: 0

Query: Name the outcome recorded for `Nc1ccc(Br)cc1` in the assay.
Result: 0

Query: Hello, I am checking results. What call was entered for `Nc1ccccc1C(=O)O` ?
Result: 0

Query: Lab log entry: `C=C(C)CCl` — outcome as called in the assay?
Result: 0

Query: What did the test return for `COC(=O)c1ccccc1N` ?
Result: 0

Query: Just curious, what result did `O=[N+]([O-])c1ccccc1` get here?
Result: 0

Query: Can you look up the reported call for `COCCl` for me?
Result: 0

Query: In this assay, the call recorded for `COC(=O)NC(=S)Nc1ccccc1NC(=S)NC(=O)OC` was what?
Result: 0

Query: For this compound, state the assay outcome: CC(Br)C(=O)O (stereo not given)
Result: 0

Query: Returns: the outcome recorded for `Cc1cccc([N+](=O)[O-])c1` in this assay.
Result: 0

Query: Would you mind telling me which call this test gave `CCCCOC(=O)c1ccccc1C(=O)OCCCC` ?
Result: 0

Query: Check the results log: what was the call for `Cn1cc(-c2ccccc2)c(=O)c(-c2cccc(C(F)(F)F)c2)c1` ?
Result: 0

Query: Record request — test call for C1CC2OC2CC1C1CO1 (stereo not given)
Result: 0

Query: Hello, I am checking results. What call was entered for `CCC12COCN1COC2` ?
Result: 0

Query: Identify the outcome logged in this assay for the compound shown: `CCCCCCCCCl`
Result: 0

Query: Dear all, I need the recorded test outcome for `O=c1ccc(=O)[nH][nH]1` , thank you.
Result: 0

Query: What did this assay record as the result for `OC(O)C(Cl)(Cl)Cl` ?
Result: 0

Query: Record request — test call for `[N-]=[N+]=[N-]`
Result: 0

Query: Could you check what this test reported for `CC(C)(C)OOC(=O)c1ccccc1` ?
Result: 0

* * *

target: Aromatase (Homo sapiens); assay: qHTS assay to identify aromatase inhibitors (AID 743083); conditions: MCF-7 aro ERE, testosterone-driven ERE luciferase, 24 h; series mostly up to 70.3 µM; note: nearly all actives have a fitted effect of over 55% in size
Results filed as inconclusive are left out. Calls of active or inactive are those of the source. Calls come from the whole dose curve; as a rule, active = well fitted inhibition curve with a large enough effect in the repeat runs; inconclusive = weak or mixed curves; inactive = no such curve, though single readings can be large or run the other way.
Parameter: outcome

Reference set (8 entries):
CCCCN(CCCC)SN(C)C(=O)Oc1cccc2c1OC(C)(C)C2 : inactive
Cc1ccc(N)cc1N : inactive
[N-]=[N+]=[N-] : inactive
Cc1ccccc1O : inactive
CC(C)NC(=O)N1CC(=O)N(c2cc(Cl)cc(Cl)c2)C1=O : inactive
CNC(=O)Oc1ccccc1OC(C)C : inactive
Cc1[nH]c(=O)n(C(C)(C)C)c(=O)c1Cl : inactive
CN=C=S : inactive

Query: Return reported outcome. Input compound: `Clc1cccc(Cl)c1Cl`
Result: inactive

Query: Supply outcome value. Item: `Oc1ccccc1Cl`
Result: inactive

Query: Dear colleague, please send me the reported outcome for `Cc1cc(-c2cc(C)c(N)c(C)c2)cc(C)c1N` when you can.
Result: inactive

Query: Provide only the value of recorded outcome for `O=c1[nH]c2ccccc2c(=O)o1`
Result: inactive

Query: Look up and state reported outcome for `O=C1CCCN1`
Result: inactive
